Molecular target: T1, His-FLP (FOUR LIPS, MYB124) (UniProt Q94FL6 1-436)
T1 sequence: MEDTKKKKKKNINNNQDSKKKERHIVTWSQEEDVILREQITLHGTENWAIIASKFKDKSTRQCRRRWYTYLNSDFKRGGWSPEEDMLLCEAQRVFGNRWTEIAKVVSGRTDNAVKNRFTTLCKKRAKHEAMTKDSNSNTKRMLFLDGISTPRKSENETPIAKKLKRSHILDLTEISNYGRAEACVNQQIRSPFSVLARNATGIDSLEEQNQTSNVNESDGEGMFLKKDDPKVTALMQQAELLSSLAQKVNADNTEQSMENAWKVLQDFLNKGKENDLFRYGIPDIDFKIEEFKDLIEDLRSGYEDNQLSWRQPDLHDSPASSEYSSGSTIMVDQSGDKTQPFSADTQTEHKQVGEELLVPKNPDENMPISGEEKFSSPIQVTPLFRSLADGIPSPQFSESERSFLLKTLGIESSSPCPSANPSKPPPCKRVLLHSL
Test: EMSA; 1x binding buffer (LightShift kit), 2.5% glycerol, 50 mM KCl, 5 mM MgCl2, 0.05% NP-40, 10 mM EDTA, room temperature, 20 min; pH not stated
endpoint-label: binding result

binder | val
Probe-1080 (neighbour element -1086 replaced with A) (dsDNA) DNA 1: CTTCTAGGAAAAAACAATTCTTGAAAAAATCGCGGAAAGATCTTGATAACATTGTGACT DNA 2: AGTCACAATGTTATCAAGATCTTTCCGCGATTTTTTCAAGAATTGTTTTTTCCTAGAAG | binds
Probe-1007 (dsDNA) DNA 1: CATAAGGTATTCTTTTACACTAATACTTTCCCGACAACAACAACGAAAAACTCCAACCT DNA 2: AGGTTGGAGTTTTTCGTTGTTGTTGTCGGGAAAGTATTAGTGTAAAAGAATACCTTATG | no binding
Probe-863 (dsDNA) DNA 1: AAGATATTAGTTTTTAATTTAGTAATATACCCATATGTTTAATATTGATATCGATATTG DNA 2: CAATATCGATATCAATATTAAACATATGGGTATATTACTAAATTAAAAACTAATATCTT | no binding
Probe-1386 (neighbour element -1392 replaced with A) (dsDNA) DNA 1: AATGTGTAATTGTCAAGAGGGATAAAAAAACGCGGATGAATCGAAGAAGCAATTGCTTT DNA 2: AAAGCAATTGCTTCTTCGATTCATCCGCGTTTTTTTATCCCTCTTGACAATTACACATT | binds
Probe-1392 (neighbour element -1386 replaced with A) (dsDNA) DNA 1: AATGTGTAATTGTCAAGAGGGATAAACCGAAAAAAATGAATCGAAGAAGCAATTGCTTT DNA 2: AAAGCAATTGCTTCTTCGATTCATTTTTTTCGGTTTATCCCTCTTGACAATTACACATT | binds
Probe-1086 (neighbour element -1080 replaced with A) (dsDNA) DNA 1: CTTCTAGGAAAAAACAATTCTTGATACGGTAAAAAAAAGATCTTGATAACATTGTGACT DNA 2: AGTCACAATGTTATCAAGATCTTTTTTTTACCGTATCAAGAATTGTTTTTTCCTAGAAG | binds
